Target: pseudo-kinase domain (JH2, amino-acids 536-812) of human Wild Type JAK2 (Homo sapiens, UniProt O60674, F794H/W659A/W777A)
Construct: pseudo-kinase domain (JH2, amino-acids 536-812 with 3 surface mutations W659A, W777A, F794H); His (C)
Sequence (O60674 536-812 W659A/W777A/F794H): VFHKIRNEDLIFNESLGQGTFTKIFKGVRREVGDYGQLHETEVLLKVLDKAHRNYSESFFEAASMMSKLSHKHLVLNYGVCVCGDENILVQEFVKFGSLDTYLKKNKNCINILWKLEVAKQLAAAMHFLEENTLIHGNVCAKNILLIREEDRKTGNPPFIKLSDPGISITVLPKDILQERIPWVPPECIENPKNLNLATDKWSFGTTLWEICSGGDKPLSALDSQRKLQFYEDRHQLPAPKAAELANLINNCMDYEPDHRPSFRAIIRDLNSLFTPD
Assay: JAK2 LanthaScreen JH2-WT Binding Assay
Conditions: JAK2 JH2-WT 0.145 nM, 50 nM tracer, 1 hour at 25° C.; read-out: JH2 BIND WT
Protocol: Example B. JAK2 LanthaScreen JH2-WT Binding Assay JAK2 JH2-WT binding assay utilizes pseudo-kinase domain (JH2, amino-acids 536-812 with 3 surface mutations W659A, W777A, F794H) of human Wild Type JAK2 expressed as C-terminal His-Avi-tagged, biotinylated protein in a baculovirus expression system (BPS Bioscience, Catalog #79463). […] After incubation for 1 hour at 25° C., LanthaScreen signals were read on a PHERAstar FS plate reader (BMG LABTECH). […]
pIC50: −log10 of the molar value.

{"structure.string": "[2H]C([2H])([2H])n1c(=O)n([C@@H]2CC[C@@H](NC(=O)OC)C2)c2cc(Nc3ccc4cc(-c5cnn(C)c5)cc(C(F)(F)F)c4n3)ncc21", "pIC50": "≥ 8.00"}
{"structure.string": "COC(=O)N[C@@H]1CC[C@@H](n2c(=O)n(C)c3cnc(Nc4cc(NC(=O)C5CC5)cc(-c5cnn(C)c5)c4)cc32)C1", "pIC50": "≥ 8.00"}
{"structure.string": "[2H]C([2H])([2H])n1c(=O)n([C@@H]2CC[C@@H](NC(=O)OC)C2)c2cc(Nc3cc(C(C)(C)O)cc(-c4ncc(C(O)(C(F)(F)F)C(F)(F)F)s4)n3)ncc21", "pIC50": "≥ 8.00"}
{"structure.string": "COC(=O)N[C@@H]1CC[C@@H](n2c(=O)n(C)c3cnc(Nc4ccn5ncc(-c6cnn(C)c6)c5n4)cc32)C1", "pIC50": "≥ 8.00"}
{"structure.string": "COC(=O)N[C@@H]1CC[C@@H](n2c(=O)n(C)c3cnc(Nc4cccc(OC5CCOCC5)n4)cc32)C1", "pIC50": "≥ 8.00"}
{"structure.string": "COC(=O)N[C@@H]1CC[C@@H](n2c(=O)n(C)c3cnc(Nc4ccn(-c5ccncc5)n4)cc32)C1", "pIC50": "6.30 to 7.00"}
